# System: Bacilus subtilis PCI 219
# test.name: Antibacterial spectra, MIC
# Type: cell-based
# applied.conditions: Bacillus subtilis, PCI219
MIC: recorded values

>>> result_value("CCNCC1CCN(c2c(F)cc3c(=O)c(C(=O)O)cn(C4CC4)c3c2OC)C1 (stereo not shown)")
"0.0063 µg/mL"

Input line: Give the measured MIC for COc1c(N2C[C@@H](N)[C@@H](C)C2)c(F)cc2c(=O)c(C(=O)O)cn(C3CC3)c12 (relative stereo)
Output line: 0.0125 µg/mL

Input line: Give the measured MIC for COc1c(N2C[C@@H](C)[C@H](N)C2)c(F)cc2c(=O)c(C(=O)O)cn(C3CC3)c12 (relative stereo)
Output line: 0.0125 µg/mL

Input line: Give the measured MIC for COc1c(N2CCC(CN)C2)c(F)cc2c(=O)c(C(=O)O)cn(C3CC3)c12 (stereo not shown)
Output line: 0.025 µg/mL

----------
MIC: recorded values
# Test system: Propionibacterium acens 11828
# test.name: Antibacterial spectra, MIC
# Type: cell-based
Kindly answer with a numeric value in µg/mL, unit omitted.

Input line: Give the measured MIC for COc1c(N2C[C@@H](C)[C@H](N)C2)c(F)cc2c(=O)c(C(=O)O)cn(C3CC3)c12 (relative stereo)
Output line: 3.13

----------
MIC: recorded values
# Tested on: Peptococcus magnus KY 017
# test.name: Antibacterial spectra, MIC
# Type: cell-based
# applied.conditions: Finegoldia magna, KY017

Before answering, review these 2 worked examples.
>>> result_value("COc1c(N2C[C@@H](C)[C@H](N)C2)c(F)cc2c(=O)c(C(=O)O)cn(C3CC3)c12 (relative stereo)")
"≤ 0.05 µg/mL"
>>> result_value("CNCC1CCN(c2c(F)cc3c(=O)c(C(=O)O)cn(C4CC4)c3c2OC)C1 (stereo not drawn)")
"≤ 0.05 µg/mL"

Next:
Input line: Specify the recorded MIC for CCNCC1CCN(c2c(F)cc3c(=O)c(C(=O)O)cn(C4CC4)c3c2OC)C1 (stereo not drawn) , system: Peptococcus magnus KY 017.
Output line: ≤ 0.05 µg/mL

----------
# Test system: Propionibacterium acens 11828
# test.name: Antibacterial spectra, MIC
# Assay type: cell-based
MIC: recorded values
Kindly answer with a numeric value in µg/mL, unit omitted.

>>> result_value("COc1c(N2CCC(CN)C2)c(F)cc2c(=O)c(C(=O)O)cn(C3CC3)c12 (stereo not shown)")
0.39
>>> result_value("CNCC1CCN(c2c(F)cc3c(=O)c(C(=O)O)cn(C4CC4)c3c2OC)C1 (stereo not shown)")
0.78
>>> result_value("COc1c(N2CCNC(C)C2)c(F)cc2c(=O)c(C(=O)O)cn(C3CC3)c12 (stereo not shown)")
6.25

Next:
Input line: Give the measured MIC for `COc1c(N2CCNCC2)c(F)cc2c(=O)c(C(=O)O)cn(C3CC3)c12`
Output line: 3.13
